Taken from the array DNA melting data of Ke et al. (doi:10.1101/2024.01.08.574731).

- assayInfo: folding enthalpy; higher = less favourable; fluorescence melt of hairpins on a sequencing array, two-state fit
- measurementSetup: sodium 0.088 M
metricName: folding enthalpy (kcal/mol)
Answers are plain numbers, in kcal/mol.

Check out these entries, answers already filled in.
Reported folding enthalpy of GATCGGTATCCGATC ((((((...)))))) : -40.8

Reported folding enthalpy of GATCTAAGAGTAGATC ((((((....)))))) : -14.9

List folding enthalpy for every entry below, keeping the order given.
1. GCAGTAGGAAACTATTGC (((.(((....))).)))
2. GAGAGAGAAATCTCTC ((((((....))))))
3. GATCGGGCTCCCGATC ((((((....))))))

1: -26.9; 2: -27.6; 3: -40.6
